Data origin, for the record: patent US20220227874A1

system_name: EGFRvIII expressed on cells (F98-npEGFRvIII, NCI-H522-EGFRvIII, U87-KO-EGFRvIII) (human)
measurement_notes: flow cytometry, F98-EGFRvIII cells; 2nd Ab only 2.3

{"binder": "46E10 (antibody, V domains shown) VH: QVTLKESGPVLVKPTETLTLTCTVSGFSLSNARMGVSWIRQPPGKALEWLAHIFSTDEKSIRRSLRSRLTLSKDTSKSQVVLIMTNMDPVDTATYYCARDSSNYEGYFDYWGQGTLVTVSS VL: EVVMTQSPPNLSVSPGERATLSCRASQSVTSNFAWYQQRPGQSPRLLLYGASTRATGVPGRFSGSGSGTENILTISSLQSEDFAVYFCQQYKDWPFTFGPGSKVDIK", "% positive": "98.7%"}
